assay: PEA pharmacokinetics, single 300 mg dose
Assay type: in vivo, human
cond: both sexes, human, plasma, po, 300 mg, plasma, single oral 300 mg, n=9 per group; read-out: Delta Cmax (peak change in PEA concentration from baseline)
measuredAttribute: Cmax (ng/mL)
Give a bare numeral; the unit ng/mL is implied.

According to the records, this molecule CCCCCCCCCCCCCCCC(=O)NCCO [Standard PEA, Palmitoylethanolamide] displays Cmax of 410

----------
assay: PEA pharmacokinetics, single 300 mg dose
Type: in vivo, human
cond: both sexes, human; plasma, prior to supplementation (hour 0), n=9 per group; read-out: Baseline PEA concentration
measuredAttribute: concentration at 0 h (ng/mL)
Give a bare numeral; the unit ng/mL is implied.

According to the records, this molecule CCCCCCCCCCCCCCCC(=O)NCCO [Standard PEA, Palmitoylethanolamide] displays concentration at 0 h of 2590

Taken from patent US12383502B2.
